- Assayed system: CDK2/Cyclin E (Homo sapiens, UniProt P24941)
- Construct: His; made in house; host or cells: Sf9 insect cells (baculovirus)
- Protocol text: CDK2/cyclin E kinase assay (GST-Rb phosphorylation)
- Format: biochemical
- Assay context: Table 3; read-out: Average IC50 CDK2 cyclin E1
The entries below are paired with their reported log10 IC50.
Form field - Quantity: IC50; Unit: nM; Scale: log10

* COC(=O)c1cc(Nc2nccc(-c3sc(C)nc3C)n2)ccc1Cl | 3.30
* Cc1nc(N)sc1-c1ccnc(Nc2cccc(N)c2)n1 | 2.40
* Cc1nc(N(C)C)sc1-c1ccnc(Nc2ccc(Cl)cc2)n1 | 3.59
* COc1ccc(Nc2nccc(-c3sc(N)nc3C)n2)cc1 | 2.83
* COc1ccc(Nc2nccc(-c3sc(C)nc3C)n2)cc1Cl | 3.75
* Cc1nc(C)c(-c2ccnc(Nc3cccc(CO)c3)n2)s1 | 2.28
* Cc1nc(C)c(-c2ccnc(Nc3cc(F)cc(F)c3)n2)s1 | 3.77
* Cc1nc(N(C)C)sc1-c1ccnc(Nc2ccc(F)cc2)n1 | 3.11

Proceeding to the next molecule to report its log10 IC50.
Query :: log10 IC50 for CNc1nc(C)c(-c2ccnc(Nc3ccc(C(F)(F)F)cc3)n2)s1 ?
Result :: 3.28

###

Catalogue of IC50 readings, one per entry.
- Assayed system: CDK2/Cyclin E (Homo sapiens, UniProt P24941)
- Construct: His; made in house; host or cells: Sf9 insect cells (baculovirus)
- Protocol text: CDK2/cyclin E kinase assay (GST-Rb phosphorylation);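 note: enzyme source: His-tagged CDK2/cyclin E complex co-expressed recombinantly in Sf9 insect cells using baculovirus constructs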
- Format: biochemical
- Assay context: Table 3; read-out: Average IC50 CDK2 cyclin E1

Query :: Entry Cc1nc(C)c(-c2ccnc(Nc3ccc(C#N)cc3)n2)s1 : reported IC50 = ?
Result :: 8000 nM

Query :: Now try CNc1nc(C)c(-c2ccnc(Nc3cccc(OC)c3)n2)s1 .
Result :: 310 nM

Query :: // same read-out, input: CNc1nc(C)c(-c2ccnc(Nc3cccc(Br)c3)n2)s1
Result :: 27000 nM

Query :: Again, but for COc1ccc(Nc2nccc(-c3sc(C)nc3C)n2)cc1N(C)C
Result :: 1100 nM

Query :: Can you handle COc1ccccc1Nc1nccc(-c2sc(C)nc2C)n1 next?
Result :: 6300 nM

Query :: Okay, and COc1ccc(Nc2nccc(-c3sc(C)nc3C)n2)cc1O ?
Result :: 140 nM

Query :: Item: Cc1nc(C)c(-c2ccnc(Nc3cccc(C#N)c3)n2)s1
Result :: 390 nM

Query :: Try O=[N+]([O-])c1ccc(Nc2ncc(-c3ccnc(Nc4ccc(O)cc4)n3)s2)cc1 next.
Result :: 120 nM

Query :: And CNc1nc(C)c(-c2ccnc(Nc3cccc([N+](=O)[O-])c3)n2)s1 ?
Result :: 2100 nM

###

- Assayed system: CDK4/Cyclin D1 (Homo sapiens)
- Sequence (P11802 whole entry, species assumed): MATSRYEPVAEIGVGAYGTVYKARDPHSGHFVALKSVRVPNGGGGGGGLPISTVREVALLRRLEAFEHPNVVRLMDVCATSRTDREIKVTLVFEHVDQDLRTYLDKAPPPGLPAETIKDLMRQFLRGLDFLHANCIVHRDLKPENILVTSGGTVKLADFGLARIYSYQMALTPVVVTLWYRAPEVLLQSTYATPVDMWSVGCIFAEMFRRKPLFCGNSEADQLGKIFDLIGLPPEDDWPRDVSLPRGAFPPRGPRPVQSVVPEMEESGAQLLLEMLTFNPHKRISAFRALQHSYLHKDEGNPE
- Sequence (P24385 whole entry partner, species assumed): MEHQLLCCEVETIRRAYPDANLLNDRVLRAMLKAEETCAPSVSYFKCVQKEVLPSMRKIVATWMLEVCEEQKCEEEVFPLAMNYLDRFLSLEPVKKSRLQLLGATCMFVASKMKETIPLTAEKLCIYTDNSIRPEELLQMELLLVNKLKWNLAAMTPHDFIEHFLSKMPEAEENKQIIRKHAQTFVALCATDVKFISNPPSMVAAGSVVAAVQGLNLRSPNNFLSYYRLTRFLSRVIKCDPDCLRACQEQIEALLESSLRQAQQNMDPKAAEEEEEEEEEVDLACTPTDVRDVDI
- Protocol text: CDK4/cyclin D1 kinase assay (GST-Rb phosphorylation)
- Assay type: biochemical
- Assay context: Table 2; read-out: Average IC50 CDK4 cyclin D1
The compounds listed here are annotated with their pIC50.
Bear in mind: pIC50 is minus log10 of a mol/L concentration; give just that figure.

Worked examples follow.
- Cc1nc(N)sc1-c1ccnc(Nc2cccc(O)c2)n1 [Compound 116]: 6.34
- Cc1nc(N)sc1-c1ccnc(Nc2ccc(I)c([N+](=O)[O-])c2)n1 [Compound 117]: 5.85

Query :: pIC50 for Cc1nc(C)c(-c2ccnc(Nc3cccc(C#N)c3)n2)s1 [Compound 36] ?
Result :: 5.54

Query :: Check COc1ccc(Nc2nccc(-c3sc(C)nc3C)n2)cc1 [Compound 26] too.
Result :: 5.62
